# Tested on: P94_40
# protocol details: qHTS profiling for inhibitors of Plasmodium falciparum proliferation (AID 504749); note: nearly all actives have a fitted effect of over 60% in size
# condition context: P. falciparum in erythrocytes, SYBR Green DNA, 72 h; series mostly up to 28.7 µM
# Procedure: NIH National Institute of Allergy and Infectious Diseases [NIAID] NIH Chemical Genomics Center [NCGC] […] Because mature erythrocytes lack DNA, only Plasmodium-derived DNA is detected. NCGC Assay Protocol Summary: The SYBR Green viability assay was adapted from a method described previously (Plouffe et al., 2008). […] The following morning, fluorescence intensity at 485(14) nm excitation and 535(25) nm emission wavelengths was measured on an EnVision (Perkin Elmer) plate reader. […]
Results filed as inconclusive are left out. Active and inactive are the calls of the source. Calls come from the whole dose curve; as a rule, active = well fitted inhibition curve with a large enough effect; inconclusive = small, poorly fitted or top-dose-only effect; inactive = flat fitted curve, though single readings scatter.
Your response should consist of one outcome taken from true for active, false for inactive

Worked examples, 2 compounds total:
INSERT INTO assay_data (smiles_structure, classification) VALUES
  ('CC(C)(C)c1ccc(CN2CCN([C@H](c3ccccc3)c3ccc(Cl)cc3)CC2)cc1', 'true'),
  ('C[C@H]1C[C@@H]2[C@H]3CCC4=CC(=O)C=C[C@@]4(C)[C@@]3(Cl)[C@@H](O)C[C@]2(C)[C@]1(OC(=O)c1ccco1)C(=O)CCl', 'true');

Turning now to a further record.
Query: Status in this test for CC1(C)[C@@H]2CC[C@]1(C)[C@@H](OC(=O)CSC#N)C2 ?
Result: false
